biological target: T1, human factor IX (human, UniProt P00740 47-461, 12 glutamic acid residues of the GLA domain are post-translationally γ-carboxylated); experiment: SPR, IgG captured on anti-human IgG Fc, human FIX as analyte
T1 construct: Zymogen used as analyte in SPR, reconstituted at 1 mg/ml; also called FIX; Human FIX (MW ~55 KDa)
T1 sequence (P00740 47-461 limits assumed): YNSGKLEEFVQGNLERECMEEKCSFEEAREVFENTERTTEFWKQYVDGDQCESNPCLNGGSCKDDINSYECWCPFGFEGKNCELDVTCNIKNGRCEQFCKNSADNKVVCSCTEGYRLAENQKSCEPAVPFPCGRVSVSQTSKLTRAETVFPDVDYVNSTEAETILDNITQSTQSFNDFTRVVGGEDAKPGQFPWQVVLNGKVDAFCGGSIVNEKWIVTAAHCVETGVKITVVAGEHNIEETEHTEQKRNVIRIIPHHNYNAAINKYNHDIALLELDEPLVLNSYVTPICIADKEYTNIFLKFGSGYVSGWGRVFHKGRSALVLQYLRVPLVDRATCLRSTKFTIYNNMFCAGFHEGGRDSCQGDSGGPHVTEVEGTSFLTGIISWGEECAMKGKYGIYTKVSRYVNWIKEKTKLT
assay.readout: pKd
Scale explanation: pKd corresponds to minus log10 of a concentration expressed in moles per litre.

Prompt line: pKd lookup needed for NINA-0438.0128 (antibody, V domains shown) VH: EVQLVESGGGFVQPGGSLRLSCAVSGFTFNSYWMSWVRQAPGKGLEWVANINQDGSEKFYVASVKGRFTMSRDNAKKSVYVQMNSLRAEDTAVYYCAREGYSSLSYYGMDVWGQGTTVTVSS VL: SYVLTQPPSVSVAPGETARITCGGDNIGRKSVYWYQQKSGQAPVLVIYYDSDRPSGIPERFSGSNSGNTATLTISRVEAGDEADYYCQVWDGSSDHWVFGGGTKLTVL , thanks.
Response line: 6.53

Prompt line: pKd lookup needed for NINA-0128 (antibody, V domains shown) VH: EVQLVESGGGFVQPGGSLRLSCAVSGFTFNSYWMSWVRQAPGKGLEWVANINQDGSEKFYVASVKGRFTMSRDNAKKSVYVQMNSLRAEDTAVYYCAREGYSSSSYYGMDVWGQGTTVTVSS VL: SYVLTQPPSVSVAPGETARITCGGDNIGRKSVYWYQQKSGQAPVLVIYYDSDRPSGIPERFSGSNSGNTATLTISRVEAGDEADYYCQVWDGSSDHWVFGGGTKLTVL , thanks.
Response line: 6.70

Prompt line: pKd lookup needed for NINA-0444.0128 (antibody, V domains shown) VH: EVQLVESGGGFVQPGGSLRLSCAVSGFTFNSYWMSWVRQAPGKGLEWVANINQDGSEKFYVASVKGRFTMSRDNAKKSVYVQMNSLRAEDTAVYYCAREGYSSTSYYGMDVWGQGTTVTVSS VL: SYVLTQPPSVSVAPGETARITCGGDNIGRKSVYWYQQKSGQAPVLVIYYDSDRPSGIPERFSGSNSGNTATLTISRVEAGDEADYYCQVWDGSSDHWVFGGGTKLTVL , thanks.
Response line: 6.69
